Exercise: state measured inhibition for each of the compounds provided.
- systemName: Glutathione S-transferase omega-1 (Homo sapiens)
- experimentSummary: inhibitors of recombinant GSTO1, primary screen, counter-screen for RBBP9 inhibitor project, biochemical, fluorescence polarization (AID 1974);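 further: 0% = GSTO1-1 with DMSO and 100% = wells lacking GSTO1-1 enzyme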
- conditions: recombinant GSTO1, activity-based probe fluorescence polarization; at 5.96 µM; hits give high values
In all, about 300,000 compounds went through this assay and about 3,200 (1.1%) were called active. What follows is part of a selection rich in actives, with near analogues and random picks from the rest.
Give bare numbers, in %.

Worked cases, inhibition given:
# compound, measure, measuredResult
measured = [
    ("CCCCC1=CC2=CC(=O)C(C)(OC(=O)CC)C(=O)C2=CN1CCCOC(C)C (centres undefined)", "inhibition", 19.3),
    ("CCC(c1nnc(SCC(=O)NNC(=O)c2ccccc2)n1Cc1ccccc1)N(C)C (centres undefined)", "inhibition", 1.64),
    ("CCOC(=O)c1cnc2nc(SCc3ccccc3Cl)[nH]n2c1=O", "inhibition", -25.6),
    ("CC1(OC(=O)CCc2ccccc2)C(=O)C=C2C=C(c3ccc(C#N)cc3)N(CCc3ccccn3)C=C2C1=O (centres undefined)", "inhibition", 27.9),
    ("CN(C)C1=NC[C@H](Cc2ccccc2)N1CCc1ccc(F)cc1", "inhibition", 0.73),
]

List inhibition for every entry below, keeping the order given.
1. CC1CCC(CN2CCN=C2N(C)C)CC1 (centres undefined)
2. C=CCNC(=O)c1cc(-c2ccccc2O)on1
3. COC(=O)CCCC1=CC2=CC(=O)C(C)(OC(=O)c3cccs3)C(=O)C2=CN1CC1CC1 (centres undefined)
4. O=C(CCN1C(=O)c2ccccc2C1=O)NCCN1CCOCC1
5. O=C(O)c1[nH]c2ccccc2c1C(c1cccc(O)c1)c1c(C(=O)O)[nH]c2ccccc12
6. COC(=O)CCCC1=CC2=CC(=O)C(C)(OC(=O)c3cccs3)C(=O)C2=CN1CC(C)C (centres undefined)
7. CCc1nnc(NC(=O)CCC(=O)O)s1

Solution:
1. 1.09
2. 3.47
3. 43.3
4. 6.46
5. 50.4
6. 19.4
7. 3.28

Batch request: inhibition for each of the following compounds.
1. CN(C)CCN(C(=O)CN1C(=O)c2ccccc2C1=O)c1nc2cc3c(cc2s1)OCCO3
2. CN1CCN(/N=C2/C(=O)Nc3ccc([N+](=O)[O-])cc32)CC1
3. Cc1cccc(C)c1NC(=O)CSc1ccc([N+](=O)[O-])cn1
4. CCCCCCSc1ccc([C@@H]2[C@@H]3C(=O)N(CC)C(=O)[C@@H]3[C@]3(C(=O)OC)CCCCN23)cc1OC

Solution:
[1.93, 37.1, 5.11, -5.28]

Below are some compounds; for each one, tell me its inhibition.
1. Cc1csc2nc(O)c(C(=O)NCCN3CCOCC3)c(=O)n12
2. CSc1nsc(SCC(=O)Nc2cc(C(=O)O)ccc2C)n1
3. Cc1c(-c2cccc(Cl)c2)nc2ccccc2c1C(=O)OCC(=O)N(C)C1CCS(=O)(=O)C1 (centres undefined)
4. CN1c2ccc(C=O)c3c(C=O)ccc(c23)N(C)C1(C)C
5. COc1ccc(-n2ncc3c(SCC(=O)NNC(C)=O)ncnc32)cc1
6. Cc1ccccc1NC(=O)COc1cccc2c1CCNC2=O

Solution:
1: -2.86; 2: -0.11; 3: -6.81; 4: 72.9; 5: -13; 6: 0.64

List reported inhibition for each of these compounds:
1. c1ccc(NCc2cccc3ccccc23)nc1
2. CC1(C)Cc2ccccc2-c2[nH]c(=S)[nH]c(=O)c21
3. CSc1nnc(C2CCCN(CC(=O)Nc3ccccc3N3CCOCC3)C2)n1C(C)C (centres undefined)
4. Cc1ccc([N+](=O)[O-])cc1S(=O)(=O)N1CCCN(C)CC1

Solution:
-6.32
3.5
4.43
2.63
